Target: PTPN11/SHP2-FL (E76K) (Homo sapiens, UniProt Q06124, E76K)
Sequence (Q06124 2-597 isoform Q06124-1 E76K): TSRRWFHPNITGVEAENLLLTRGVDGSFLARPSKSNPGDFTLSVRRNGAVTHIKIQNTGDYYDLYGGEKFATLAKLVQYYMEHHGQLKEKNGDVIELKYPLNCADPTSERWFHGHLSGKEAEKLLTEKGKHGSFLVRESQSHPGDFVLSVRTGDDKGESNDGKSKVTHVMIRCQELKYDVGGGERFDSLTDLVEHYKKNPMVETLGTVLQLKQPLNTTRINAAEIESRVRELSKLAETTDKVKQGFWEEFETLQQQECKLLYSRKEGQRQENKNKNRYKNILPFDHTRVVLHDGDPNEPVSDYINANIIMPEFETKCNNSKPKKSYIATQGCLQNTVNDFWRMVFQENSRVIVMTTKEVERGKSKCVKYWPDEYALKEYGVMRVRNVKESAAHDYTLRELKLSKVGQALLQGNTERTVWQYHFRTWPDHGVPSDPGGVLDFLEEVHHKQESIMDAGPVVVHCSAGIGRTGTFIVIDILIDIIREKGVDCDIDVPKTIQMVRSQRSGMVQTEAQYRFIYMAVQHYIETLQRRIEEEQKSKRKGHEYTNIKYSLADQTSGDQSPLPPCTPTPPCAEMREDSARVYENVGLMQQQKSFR
Experiment: Phosphatase assay PTPN11/SHP2-FL (E76K)
test.readout: IC50 (nM)
Entry rule: numbers only, all in nM.

compound	IC50, nM
CC(CCCC(C)C1CCC2C3C(O)CC4CC(NCCCNCCCCN)CCC4(C)C3CC(O)C12C)C(=O)O (single isomer, unassigned) [ENT-05]	43

Turning now to a further record.
Give the measured IC50 for CC(CCCC(C)C1CCC2C3C(O)CC4CC(NCCCNCCCCN)CCC4(C)C3CCC12C)C(=O)O (single isomer, unassigned) [ENT-06]
345

====

target: PTPN6/SHP1 (Homo sapiens); construct: purchased Recation Biology Inc; assay: Phosphatase assay PTPN6/SHP1; format: biochemical; conditions: Table 2B; read-out: Compound IC50 (M) PTPN6/SHP1
Sequence (P29350 whole entry): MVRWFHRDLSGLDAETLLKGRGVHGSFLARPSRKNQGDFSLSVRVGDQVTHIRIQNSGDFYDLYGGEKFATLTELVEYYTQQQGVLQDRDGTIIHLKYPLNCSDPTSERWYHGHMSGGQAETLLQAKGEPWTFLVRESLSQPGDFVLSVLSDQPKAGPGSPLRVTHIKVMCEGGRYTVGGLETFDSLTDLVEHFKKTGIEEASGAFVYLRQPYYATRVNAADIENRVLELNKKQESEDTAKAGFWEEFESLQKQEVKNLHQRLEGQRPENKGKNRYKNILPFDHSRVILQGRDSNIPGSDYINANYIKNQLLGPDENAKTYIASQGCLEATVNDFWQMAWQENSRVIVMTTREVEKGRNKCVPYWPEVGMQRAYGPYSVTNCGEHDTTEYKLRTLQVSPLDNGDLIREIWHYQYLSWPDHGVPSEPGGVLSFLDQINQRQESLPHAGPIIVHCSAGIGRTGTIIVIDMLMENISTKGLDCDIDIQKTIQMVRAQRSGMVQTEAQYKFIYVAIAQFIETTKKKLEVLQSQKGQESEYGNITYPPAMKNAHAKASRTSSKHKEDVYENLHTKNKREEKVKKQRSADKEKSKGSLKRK
# Lookup of reported IC50 keyed by entry

compound	IC50
CC(C)[C@@H](CC[C@@H](C)[C@H]1CC[C@H]2[C@@H]3[C@H](O)C[C@H]4C[C@@H](NCCCNCCCCNCCCN)CC[C@]4(C)[C@H]3CC[C@]12C)OS(=O)(=O)O (single isomer, unassigned)	> 0.0001 M

Turning now to a further record.
Give the measured IC50 for CC(CCCC(C)C1CCC2C3C(O)CC4CC(NCCCNCCCCNCCCN)CCC4(C)C3CCC12C)C(=O)O (single isomer, unassigned; ent-03)
> 0.0001 M

====

target: PP2A Alpha/PP2R1A Complex (Homo sapiens, UniProt P67775); construct: purchased Recation Biology Inc; test: Phosphatase assay PP2A Alpha/PP2R1A Complex; assay type: biochemical; settings: Table 2B; read-out: Compound IC50 (M) PP2A Alpha/PP2R1A Complex
Sequence (P67775 whole entry): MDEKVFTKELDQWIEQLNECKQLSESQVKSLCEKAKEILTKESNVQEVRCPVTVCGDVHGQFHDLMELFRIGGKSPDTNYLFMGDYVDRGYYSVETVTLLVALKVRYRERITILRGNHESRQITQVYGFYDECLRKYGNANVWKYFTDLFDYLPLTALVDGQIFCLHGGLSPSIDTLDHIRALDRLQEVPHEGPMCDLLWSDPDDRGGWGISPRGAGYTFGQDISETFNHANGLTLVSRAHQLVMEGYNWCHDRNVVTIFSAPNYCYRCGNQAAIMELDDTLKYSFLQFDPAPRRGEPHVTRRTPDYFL
Sequence (P30153 whole entry partner): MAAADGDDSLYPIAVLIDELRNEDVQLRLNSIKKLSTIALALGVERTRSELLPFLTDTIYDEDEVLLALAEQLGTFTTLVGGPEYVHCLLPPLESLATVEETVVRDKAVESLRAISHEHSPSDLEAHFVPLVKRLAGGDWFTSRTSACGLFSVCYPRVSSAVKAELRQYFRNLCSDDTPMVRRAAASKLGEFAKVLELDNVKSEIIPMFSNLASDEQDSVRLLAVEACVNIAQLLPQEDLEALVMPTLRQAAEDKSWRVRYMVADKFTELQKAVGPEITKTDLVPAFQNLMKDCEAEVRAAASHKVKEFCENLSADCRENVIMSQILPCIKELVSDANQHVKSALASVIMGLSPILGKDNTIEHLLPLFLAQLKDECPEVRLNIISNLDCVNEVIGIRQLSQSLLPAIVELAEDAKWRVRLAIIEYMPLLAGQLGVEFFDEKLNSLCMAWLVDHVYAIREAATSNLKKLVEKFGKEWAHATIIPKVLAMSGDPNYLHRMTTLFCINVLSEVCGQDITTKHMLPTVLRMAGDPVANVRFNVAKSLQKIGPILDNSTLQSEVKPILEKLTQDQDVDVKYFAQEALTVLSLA
test.readout: IC50

Give the measured IC50 for CC(CCCC(C)C1CCC2C3C(O)CC4CC(NCCCNCCCCNCCCN)CCC4(C)C3CCC12C)C(=O)O (single isomer, unassigned; ent-03) [ENT-03]
> 0.0001 M

====

molecular target: PTPRC/CD45 (Homo sapiens, UniProt P08575); construct: purchased Recation Biology Inc; assay: Phosphatase assay PTPRC/CD45; type: biochemical; conditions: Table 2B; read-out: Compound IC50 (M) PTPRC/CD45
Sequence (P08575 26-1306): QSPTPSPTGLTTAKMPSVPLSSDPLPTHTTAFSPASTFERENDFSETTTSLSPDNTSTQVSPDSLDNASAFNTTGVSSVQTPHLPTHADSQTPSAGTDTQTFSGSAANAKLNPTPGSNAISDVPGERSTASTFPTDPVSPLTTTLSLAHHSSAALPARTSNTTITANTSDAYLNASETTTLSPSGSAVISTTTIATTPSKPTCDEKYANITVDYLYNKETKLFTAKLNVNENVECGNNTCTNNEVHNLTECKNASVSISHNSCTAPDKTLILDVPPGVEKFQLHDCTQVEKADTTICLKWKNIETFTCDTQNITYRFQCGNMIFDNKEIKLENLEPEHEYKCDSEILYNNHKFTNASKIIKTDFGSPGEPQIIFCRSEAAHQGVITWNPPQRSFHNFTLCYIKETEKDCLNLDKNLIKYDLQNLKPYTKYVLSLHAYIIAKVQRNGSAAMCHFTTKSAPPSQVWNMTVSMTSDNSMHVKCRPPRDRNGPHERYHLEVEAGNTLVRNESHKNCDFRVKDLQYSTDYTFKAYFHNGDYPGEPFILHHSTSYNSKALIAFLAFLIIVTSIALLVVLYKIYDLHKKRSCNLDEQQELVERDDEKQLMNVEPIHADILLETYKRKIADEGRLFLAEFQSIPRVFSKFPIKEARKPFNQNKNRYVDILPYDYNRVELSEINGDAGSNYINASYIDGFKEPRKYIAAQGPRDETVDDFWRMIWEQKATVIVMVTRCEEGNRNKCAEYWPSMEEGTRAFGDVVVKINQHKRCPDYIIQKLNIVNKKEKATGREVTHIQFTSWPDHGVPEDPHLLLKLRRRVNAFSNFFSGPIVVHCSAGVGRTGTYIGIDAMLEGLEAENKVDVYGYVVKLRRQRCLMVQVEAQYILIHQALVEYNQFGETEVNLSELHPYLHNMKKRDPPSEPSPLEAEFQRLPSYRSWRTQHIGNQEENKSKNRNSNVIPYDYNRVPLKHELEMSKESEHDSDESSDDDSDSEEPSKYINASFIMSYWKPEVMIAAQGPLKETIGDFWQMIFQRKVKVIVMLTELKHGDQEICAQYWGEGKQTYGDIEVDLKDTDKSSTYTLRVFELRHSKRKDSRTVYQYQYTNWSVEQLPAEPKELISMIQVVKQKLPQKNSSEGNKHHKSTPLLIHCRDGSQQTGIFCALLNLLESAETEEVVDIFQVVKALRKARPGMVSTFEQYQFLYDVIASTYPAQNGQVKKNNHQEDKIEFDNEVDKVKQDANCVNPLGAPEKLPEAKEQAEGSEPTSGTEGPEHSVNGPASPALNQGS
test.readout: IC50 (M)
Entry rule: numbers only, all in M.

Give the measured IC50 for CC(CCCC(C)C1CCC2C3C(O)CC4CC(NCCCNCCCCNCCCN)CCC4(C)C3CCC12C)C(=O)O (single isomer, unassigned; ent-03)
5.71e-07

====

target: PTPN2/TC-PTP (Homo sapiens, UniProt P17706); construct: purchased Recation Biology Inc; assay: Phosphatase assay PTPN2/TC-PTP; assay type: biochemical; conditions: Table 2C; read-out: Compound IC50 (M) PTPN2/TC-PTP
Sequence (P17706 whole entry): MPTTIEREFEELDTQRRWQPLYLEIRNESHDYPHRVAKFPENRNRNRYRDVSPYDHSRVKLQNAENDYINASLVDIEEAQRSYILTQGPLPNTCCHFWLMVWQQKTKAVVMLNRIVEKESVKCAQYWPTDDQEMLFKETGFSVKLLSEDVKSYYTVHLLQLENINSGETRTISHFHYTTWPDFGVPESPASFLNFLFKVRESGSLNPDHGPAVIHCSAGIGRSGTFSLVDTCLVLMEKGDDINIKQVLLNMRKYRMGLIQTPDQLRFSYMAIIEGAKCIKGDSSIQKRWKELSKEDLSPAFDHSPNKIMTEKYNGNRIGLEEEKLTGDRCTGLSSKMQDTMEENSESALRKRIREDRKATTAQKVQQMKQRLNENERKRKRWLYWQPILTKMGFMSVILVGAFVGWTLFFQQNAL
test.readout: IC50

molecule	target.or.test.system	IC50
CC(C)[C@@H](CC[C@@H](C)[C@H]1CC[C@H]2[C@@H]3[C@H](O)C[C@H]4C[C@@H](NCCCNCCCCNCCCN)CC[C@]4(C)[C@H]3CC[C@]12C)OS(=O)(=O)O (single isomer, unassigned) [ENT-02, trodusquemine]	PTPN2/TC-PTP (Homo sapiens, UniProt P17706)	> 0.0001 M

Turning now to a further record.
System PTPN2/TC-PTP (Homo sapiens, UniProt P17706). Read-out IC50. Item CC(CCCC(C)C1CCC2C3C(O)CC4CC(NCCCNCCCCNCCCN)CCC4(C)C3CCC12C)C(=O)O (single isomer, unassigned; ent-03) [ENT-03] . Report value.
> 0.0001 M
